# Target Or Test System: T1, Angiogenin (human ANG) (human, UniProt P03950 25-147, iodine-125 label in the radio receptor assay; coupled to Sepharose in the affinity chromatography)
# T1 construct: also called free ANG
# T1 sequence (P03950 25-147 limits assumed): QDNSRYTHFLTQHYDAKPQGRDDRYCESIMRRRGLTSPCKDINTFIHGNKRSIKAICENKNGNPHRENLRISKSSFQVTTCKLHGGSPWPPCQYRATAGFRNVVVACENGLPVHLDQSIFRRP
# Protocol Notes: method not named at this place; Example 4 names ELISA and equilibrium dialysis
Parameter: pKd
One number for each entry, as −log10 of the molar value.

Q: Endpoint output: pKd of GTSSEYDSILVEINKRVK (Chemically synthesized peptide from the region of Plexin B2 between residues 316 and 449) [Plexin B2 peptide GTSSEYDSILVEINKRVK (SEQ ID NO: 1)] . Value?
Result: 6.70
